Let's look at some molecules and their measured growth.
- System: MDA-MB-468 breast
- assayComment: NCI-60 one-dose screen, 48 h (100 = growth as untreated, 0 = no growth, -100 = all killed)
- experimentalConditions: 10 µM unless noted
- Procedure: Growth inhibition of the MDA-MB-468 human Breast tumor cell line is measured as a screen for anti-cancer activity. Cells are grown in 96 well plates and exposed to the test compound for 48 hours. Compounds are tested at a single concentration, which is 10^-5 M for most compounds. The reported endpoint is percent growth (GI% or GIPRCNT), where numbers from 0 - 100% represent growth inhibition, and numbers from -100% - 0 represent cell death. […]
Compounds without any hit were thinned out: in the full panel of roughly 83,000, 20% have a hit.
valueType: growth (%)

INSERT INTO results (chemsmiles, systemname, valuetype, valuemeasured) VALUES
  ('CSC1=Nc2c(c(C)c(-c3ccccc3)n2CCCC(=O)O)C2=NC(=O)C[C@H](C)N12', 'MDA-MB-468 breast', 'growth', 83.7),
  ('Cc1ccc(O)c(C(=O)c2ccccc2Cl)c1', 'MDA-MB-468 breast', 'growth', 106),
  ('Cc1cc(-c2cc(OC(=O)c3ccccc3)ccc2Cl)cc2nnc(Nc3ccc(OCCN4CCCC4)cc3)nc12', 'MDA-MB-468 breast', 'growth', 84.3);
